Test: Liver microsome stability, human
Type: in vitro ADME
Conditions: liver microsomes, liver microsome stability, read-out: Human T1/2
value_type: half-life (h)

| compound | quantity_unit | observed_measurement |
| --- | --- | --- |
| CCC(C)(C)C(=O)N(O)Cc1cc(F)cc(F)c1 | h | 3.8 |
| CCC(C)(C)C(=O)N(O)Cc1ccccc1 [Compound 92, reference compound] | h | 3.4 |

====

# half-life per entry
Test: PK in rat
Parameters: species or system SD rat
Details: Sprague-Dawley, rat, in vivo, po, 10 mg/kg, PO 10 mg/kg

| compound | quantity_unit | half-life |
| --- | --- | --- |
| CCC(C)(C)C(=O)N(O)Cc1ccc(F)cc1 | min | 32.5 |
| CCC(C)(C)C(=O)N(O)Cc1ccccc1 [Compound 92, reference compound] | min | 48 |
